system: HCT-116; experiment: Growth inhibition of CDK9-positive tumor cell line in vitro; type: cell-based; details: Human intestinal cancer, read-out: Inhibitory activity (IC50) on growth in vitro, HCT-116
pIC50: −log10 of the molar value.
Some compounds, each annotated with its measured pIC50.

chemical_smiles	pIC50
CCN1CCN(c2cccc(Nc3ncc(F)c(-n4cc(C(N)=O)c5cc(OC)ccc54)n3)c2)CC1	8.00 to 9.00
CCN1CCN(c2cccc(Nc3ncc(F)c(-n4cc(C(N)=O)c5cc(F)ccc54)n3)c2)CC1	8.00 to 9.00
NC(=O)c1cn(-c2nc(Nc3cccc(N4CCN(C5CCOCC5)CC4)c3)ncc2F)c2ccccc12	8.00 to 9.00
Cc1cc(Nc2ncc(Cl)c(-n3cc(C(N)=O)c4ccccc43)n2)ccc1N1CCN(C(C)C)CC1	6.00 to 7.00
CC(C)N1CCN(c2cccc(Nc3ncc(F)c(-n4cc(C(N)=O)c5ccccc54)n3)c2)CC1	8.00 to 9.00
